- SYSTEM_UNDER_TEST: UniProtKB O43614
- PROTOCOL_DESCRIPTION: IPOne (IP-1 accumulation) assay in CHO cells expressing human OX2R
- STUDY_CONDITIONS: CHO cells expressing human OX2R; IP-One assay, 2 h incubation; four parameter logistic fit; read-out: OX2R Potency, EC50
EXPERIMENTAL_READOUT: EC50 (nM)

The following compounds have reported results that may help.
COMPOUND	UNIT_OF_MEASURE	EC50
CC[C@H](CCC(F)(F)F)NC(=O)N(CC)[C@H](C)c1cccc(-c2cc3c(c(OC)c2)NCC3)c1	nM	619
CCN(C(=O)N[C@@H](CCC(F)(F)F)C(F)(F)F)[C@H](C)c1cccc(-c2cc(OC)c3nc(Cl)cn3c2)c1	nM	1.5
CCN(C(=O)NC(Cn1nccn1)C(F)(F)F)[C@H](C)c1cccc(-c2cn3ccnc3c(OC)n2)c1 (stereo partly shown)	nM	2.8

[A] CCN(C(=O)N[C@@H](CCC(F)(F)F)C(F)(F)F)C(c1cnc(SC)c(-c2cc(OC)n3nccc3c2)c1)C(F)(F)F (stereo partly shown)
[B] CCN(C(=O)N[C@@H](CCC(F)(F)F)C(F)(F)F)C(C)c1cc(-c2cc(F)c3nccn3c2)c(OC)cn1 (stereo partly shown)
Q: Given the two records A and B , choose the one whose EC50 value is lower. Select an item and report its label.
Result: B
(B: 1 nM, A: 24 nM)

[A] CCC(NC(=O)N(CC)[C@@H](c1cc(-c2cn3ccnc3c(OC)n2)c(OC)cn1)C(F)(F)F)C(F)F (stereo partly shown)
[B] CCN(C(=O)NC(c1cccc(F)c1)C(F)(F)F)[C@@H](c1cccc(-c2cn3ccnc3c(OC)n2)c1)C(F)(F)F (stereo partly shown)
[C] CCN(C(=O)N[C@@H](CCC(F)(F)F)C(F)(F)F)[C@H](C)c1cc(-c2cc(OC)c3ncoc3c2)c(OC)cn1
Q: Ordering: ascending EC50. Rank them, then answer with their labels in that order.
Result: B, C, A
(B: 5.2 nM, C: 7.5 nM, A: 22.5 nM)

[I] CC[C@H](CCC(F)(F)F)NC(=O)N(CC)[C@H](C)c1cccc(-c2cc(OC(F)F)c3nccn3c2)c1
[II] CCN(C(=O)N[C@@H](CCC(F)(F)F)C(F)(F)F)[C@H](C)c1cc(-c2cc(OC)n3nccc3c2)c(OC)cn1
Q: I'd appreciate it if you could identify which of I and II has the greater EC50. Select an item and report its label.
Result: I
(I: 29.3 nM, II: 0.6 nM)

----------
- SYSTEM_UNDER_TEST: human OX2R (Homo sapiens, UniProt O43614)
- Sequence (O43614 1-444): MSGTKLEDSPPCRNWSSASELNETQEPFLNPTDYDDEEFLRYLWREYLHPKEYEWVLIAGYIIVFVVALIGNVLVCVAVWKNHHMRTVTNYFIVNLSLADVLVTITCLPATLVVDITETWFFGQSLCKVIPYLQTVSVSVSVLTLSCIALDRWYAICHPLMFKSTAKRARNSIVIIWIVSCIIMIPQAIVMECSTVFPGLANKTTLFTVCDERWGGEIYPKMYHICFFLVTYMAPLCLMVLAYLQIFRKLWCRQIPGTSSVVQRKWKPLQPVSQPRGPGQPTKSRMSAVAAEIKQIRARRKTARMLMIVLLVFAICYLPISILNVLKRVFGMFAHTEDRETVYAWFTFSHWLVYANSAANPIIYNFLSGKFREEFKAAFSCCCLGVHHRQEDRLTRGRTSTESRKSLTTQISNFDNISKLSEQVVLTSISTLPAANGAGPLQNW
- PROTOCOL_DESCRIPTION: IPOne (IP-1 accumulation) assay in CHO cells expressing human OX2R
- STUDY_CONDITIONS: CHO cells expressing human OX2R; IP-One assay, 2 h incubation; four parameter logistic fit; read-out: OX2R Potency, EC50
EXPERIMENTAL_READOUT: EC50 (nM)

The following compounds have reported results that may help.
COMPOUND	SYSTEM_UNDER_TEST	EC50 / nM
CCN(C(=O)NC(CCCF)C1CC1)[C@@H](c1cc(-c2cn3cc(C)nc3c(OC)n2)c(OC)cn1)C(F)(F)F (some centres unmarked) [Example 6-4]	human OX2R (Homo sapiens, UniProt O43614)	16
CC[C@H](CCC(F)(F)F)NC(=O)N(CC)[C@H](C)c1cccc(-c2cn3ccnc3c(SC)n2)c1 [Example 8-1]	human OX2R (Homo sapiens, UniProt O43614)	211

[P] CCN(C(=O)N[C@@H](C1CCCC(F)(F)C1)C(F)(F)F)[C@H](C)c1cccc(-c2cn3ccnc3c(OC)n2)c1 (single isomer, unassigned) [Example 3-1]
[Q] CCc1nc(-c2cc([C@H](N(CC)C(=O)N[C@@H](CCC(F)(F)F)C(F)(F)F)C(F)(F)F)ncc2OC)cn2ccnc12 [Example 9-2]
[R] CCN(C(=O)N[C@@H](CCC(F)(F)F)C(F)(F)F)C(=C(F)F)c1cc(-c2cn3ccnc3c(OC)n2)c(OC)cn1 [Example 28]
[S] CCN(C(=O)NC1CC(CC(F)(F)F)C1)[C@@H](c1cc(-c2cn3ccnc3c(OC)n2)c(OC)cn1)C(F)(F)F (some centres unmarked) [Example 2-30]
Q: Ordering: ascending EC50. Rank them, then answer with their labels in that order.
Result: P, Q, S, R

[a] CCN(C(=O)NC(CC(F)F)C(F)(F)F)[C@H](C)c1cccc(-c2cn3ccnc3c(OC)n2)c1 (some centres unmarked) [Example 2-52]
[b] CCN(C(=O)NC(CC(=O)N(C)C)C(F)(F)F)[C@H](C)c1cccc(-c2cn3ccnc3c(OC)n2)c1 (single isomer, unassigned) [Example 24]
Q: Given the two records a and b , choose the one whose EC50 value is lower. Select an item and report its label.
Result: a

[1] CCN(C(=O)N[C@@H](CCC(F)(F)F)C1CC1)[C@H](C)c1cnc(OC)c(-c2cn3ccnc3c(OC)n2)c1 [Example 12-2]
[2] CCN(C(=O)NC(CCC(F)(F)F)COC)[C@@H](c1cc(-c2cn3cc(C)nc3c(OC)n2)c(OC)cn1)C(F)(F)F (some centres unmarked) [Example 2-49]
[3] CCN(C(=O)N[C@@H](CCCF)C(F)F)[C@@H](c1cc(-c2cn3ncnc3c(OC)n2)c(OC)cn1)C(F)(F)F [Example 4-3]
Q: Ordering: ascending EC50. Rank them, then answer with their labels in that order.
Result: 1, 3, 2
(1: 1.2 nM, 3: 17.2 nM, 2: 99.4 nM)

The measured values listed here are drawn from patent US12692262B2.
